# System: up-regulation of ICAM-1 (CD54) by IFNγ in A549 lung epithelial cells
# protocol.description: A549 Epithelial Line Stimulated with IFNγ (ICAM-1 surface expression, FACS)
# Type: cell-based, human
# condition.description: A549 epithelial line stimulated with IFNγ; ICAM-1 expression by FACS; read-out: IC50, Example 43
# Method: The activity of the compounds of the invention may additionally be characterized by assaying the effect of the 2,4-substituted pyrimidinediamine compounds described herein on A549 lung epithelial cells and U937 cells. […] Therefore, using ICAM-1 expression as readout, test compound effects on different signaling pathways can be assessed in the same cell type. […] The up-regulation of ICAM-1 can be quantified by flow cytometry across a compound dose curve and EC50, values are calculated. […]
pIC50: −log10 of the molar value.
pIC50 vs 5: at or above is satisfied, below is not satisfied.

Evaluate N#CCOc1ccc(Nc2nc(Nc3cccc(S(N)(=O)=O)c3)ncc2F)cc1 [Compound I-17] : pIC50 at minimum 5?
satisfied

Evaluate Cc1cc(Nc2nc(Nc3cccc(S(N)(=O)=O)c3)ncc2F)cc(C)c1OC(C)C#N (racemic) [Compound I-71] : pIC50 at minimum 5?
satisfied

Evaluate CC(C#N)Oc1ccc(Nc2nc(Nc3ccc(F)c(S(N)(=O)=O)c3)ncc2F)cc1 (racemic) [Compound I-68] : pIC50 at minimum 5?
satisfied

Evaluate Cc1ccc(Nc2ncc(F)c(Nc3cc(C)c(OC(C)C#N)c(C)c3)n2)cc1S(N)(=O)=O (racemic) [Compound I-72] : pIC50 at minimum 5?
satisfied

Evaluate Cc1ccc(Nc2ncc(F)c(Nc3cc(C)c(OCC(N)=O)c(C)c3)n2)cc1S(N)(=O)=O [Compound I-96] : pIC50 at minimum 5?
not satisfied

Evaluate Cc1nnc(COc2ccc(Nc3nc(Nc4cccc(S(N)(=O)=O)c4)ncc3F)cc2)o1 [Compound I-277] : pIC50 at minimum 5?
satisfied

Evaluate Cc1ccc(Nc2ncc(C)c(Nc3ccc(CCC#N)cc3)n2)cc1S(N)(=O)=O [III-11] : pIC50 at minimum 5?
satisfied

Evaluate Cc1ccc(Nc2ncc(F)c(Nc3ccc(CCC#N)cc3)n2)cc1S(N)(=O)=O [III-15] : pIC50 at minimum 5?
satisfied

Evaluate Cc1cc(Nc2nc(Nc3ccc(S(N)(=O)=O)cc3)ncc2F)cc(C)c1OC(C)C#N (racemic) [Compound I-63] : pIC50 at minimum 5?
not satisfied

Evaluate Cc1ccc(Nc2ncc(F)c(Nc3cc(C)c(OCC#N)c(C)c3)n2)cc1S(N)(=O)=O [Compound I-27] : pIC50 at minimum 5?
satisfied

Evaluate CN1CCN(S(=O)(=O)c2cccc(Nc3ncc(F)c(Nc4ccc(OCC#N)cc4)n3)c2)CC1 [Compound I-19] : pIC50 at minimum 5?
not satisfied

Evaluate Cc1noc(COc2ccc(Nc3nc(Nc4cc(C)c(Cl)c(S(N)(=O)=O)c4)ncc3F)cc2)n1 [Compound I-265] : pIC50 at minimum 5?
satisfied

Evaluate CC(C)(C#N)Oc1ccc(Nc2nc(Nc3cccc(S(N)(=O)=O)c3)ncc2F)cc1 [Compound I-76] : pIC50 at minimum 5?
satisfied

Evaluate Cc1ccc(Nc2ncc(F)c(Nc3ccc(OCc4ccncc4)cc3)n2)cc1S(N)(=O)=O [Compound I-194] : pIC50 at minimum 5?
satisfied

Evaluate CN1CCN(c2ccc(Nc3ncc(F)c(Nc4ccc(OCC#N)cc4)n3)cc2S(N)(=O)=O)CC1 [Compound I-9] : pIC50 at minimum 5?
not satisfied

Evaluate NS(=O)(=O)c1cccc(Nc2ncc(F)c(Nc3ccc(Cn4ccnc4)cc3)n2)c1 [III-81] : pIC50 at minimum 5?
not satisfied

Evaluate CN1CCN(S(=O)(=O)c2ccc(Nc3ncc(F)c(Nc4ccc(CC#N)cc4)n3)cc2)CC1 [III-6] : pIC50 at minimum 5?
not satisfied

Evaluate CN1CCN(S(=O)(=O)c2cccc(Nc3ncc(F)c(Nc4cccc(OCC#N)c4)n3)c2)CC1 [Compound I-5] : pIC50 at minimum 5?
not satisfied

Evaluate N#CCOc1cccc(Nc2nc(Nc3cccc(S(N)(=O)=O)c3)ncc2F)c1 [Compound I-4] : pIC50 at minimum 5?
satisfied

Evaluate Cc1cc(Nc2nc(Nc3ccc(C)c(S(N)(=O)=O)c3)ncc2F)ccc1OC(C)C(N)=O (racemic) [Compound I-121] : pIC50 at minimum 5?
not satisfied

Evaluate Cc1cc(COc2ccc(Nc3nc(Nc4cc(C)c(Cl)c(S(N)(=O)=O)c4)ncc3F)cc2)no1 [Compound I-218] : pIC50 at minimum 5?
satisfied

Evaluate CCN(CC)CCNS(=O)(=O)c1cccc(Nc2ncc(F)c(Nc3ccc(OCc4cc(C)on4)c(C)c3)n2)c1 [Compound I-244] : pIC50 at minimum 5?
not satisfied
